Data provenance is the supplement of paper PMC9732359.

Experiment: protein stability index of a GFP-peptide fusion (yeast GPS) (PSI 1-4); higher = more stable; sorted into four equal gates, so the index is relative within each strain
Settings: ubr1∆
Measured Metric: protein stability index

1) EDYELSPQAVSSFVRQE [PRE1]    2.53
2) MISIIKLVTNVVDPKTS [YML103C/NUP188]    1.67
3) ETPNQDATYDSALELVG [RPN6]    2.6
4) FERLVPRGTAKLIIHRK [SMC3]    2.86
5) NLWKNIFLSKENSAVAA [COR1]    1.61
6) VKKLEIQQHARYDCSFC [RPL43A]    3.3
7) QNCWSLINDSYINDVHL [SSN8]    3.23
8) PDENHDNTSHDEQDDDN [BRN1]    3.11
9) NFNDIPPSVTLQDWQRE [YDL088C/ASM4]    3.09
10) LEQDLHFENAKVIDLDT [YIL149C/MLP2]    3.13
11) KSIDSKTPEEVEVYAKI [ISW2]    3.01
12) SRSTEKKNDMNTSAKNK [SIR4]    2.88
13) MSRSLANGIINVKEITE [SMC3]    2.87
14) YSRISKLKQLLDESSEQ [YIL149C/MLP2]    2.4
15) NTGIVSSTTGMSYVVRI [RPT3]    3.25
16) SRGIVIGSGAMSPLECR [RPP1]    2.44
17) DDDEVDYSEIQRSRRKF [DSN1]    2.75
18) NNGSSDKSLDSSNASFN [MED1]    2.98
19) LERIVQIMQNPTHYKIP [RPS18A]    2.74
20) TAEFGKILAGLHDTQIE [RPN10]    3.02
21) NEKSQAEQEKAKNIISN [LRP1]    2.62
22) FVHSVKKFLRVRIFTKI [SRB4]    2.07
23) ATFSVSQASSDLGETFR [CSL4]    2.57
24) TVIPEDEEIIQLHFSLL [RPO21]    2.56
25) IQEANSVDMSALKDPQT [RIP1]    3.26
26) VRRLEAQRNALNDKVRF [RPT6]    2.7
27) EPSDLRSWTLTSEMKVL [YGL100W/SEH1]    3.37
28) GNNNNNNSGNDNNNTTN [MED2]    2.93
29) RYRLLSDVSDFEGWGHE [RPN1]    2.83
